Values compiled from patent US9801840B1.

target: VEGFR2 (kinase insert domain receptor, KDR) (Homo sapiens)
Sequence (P35968 20-1356): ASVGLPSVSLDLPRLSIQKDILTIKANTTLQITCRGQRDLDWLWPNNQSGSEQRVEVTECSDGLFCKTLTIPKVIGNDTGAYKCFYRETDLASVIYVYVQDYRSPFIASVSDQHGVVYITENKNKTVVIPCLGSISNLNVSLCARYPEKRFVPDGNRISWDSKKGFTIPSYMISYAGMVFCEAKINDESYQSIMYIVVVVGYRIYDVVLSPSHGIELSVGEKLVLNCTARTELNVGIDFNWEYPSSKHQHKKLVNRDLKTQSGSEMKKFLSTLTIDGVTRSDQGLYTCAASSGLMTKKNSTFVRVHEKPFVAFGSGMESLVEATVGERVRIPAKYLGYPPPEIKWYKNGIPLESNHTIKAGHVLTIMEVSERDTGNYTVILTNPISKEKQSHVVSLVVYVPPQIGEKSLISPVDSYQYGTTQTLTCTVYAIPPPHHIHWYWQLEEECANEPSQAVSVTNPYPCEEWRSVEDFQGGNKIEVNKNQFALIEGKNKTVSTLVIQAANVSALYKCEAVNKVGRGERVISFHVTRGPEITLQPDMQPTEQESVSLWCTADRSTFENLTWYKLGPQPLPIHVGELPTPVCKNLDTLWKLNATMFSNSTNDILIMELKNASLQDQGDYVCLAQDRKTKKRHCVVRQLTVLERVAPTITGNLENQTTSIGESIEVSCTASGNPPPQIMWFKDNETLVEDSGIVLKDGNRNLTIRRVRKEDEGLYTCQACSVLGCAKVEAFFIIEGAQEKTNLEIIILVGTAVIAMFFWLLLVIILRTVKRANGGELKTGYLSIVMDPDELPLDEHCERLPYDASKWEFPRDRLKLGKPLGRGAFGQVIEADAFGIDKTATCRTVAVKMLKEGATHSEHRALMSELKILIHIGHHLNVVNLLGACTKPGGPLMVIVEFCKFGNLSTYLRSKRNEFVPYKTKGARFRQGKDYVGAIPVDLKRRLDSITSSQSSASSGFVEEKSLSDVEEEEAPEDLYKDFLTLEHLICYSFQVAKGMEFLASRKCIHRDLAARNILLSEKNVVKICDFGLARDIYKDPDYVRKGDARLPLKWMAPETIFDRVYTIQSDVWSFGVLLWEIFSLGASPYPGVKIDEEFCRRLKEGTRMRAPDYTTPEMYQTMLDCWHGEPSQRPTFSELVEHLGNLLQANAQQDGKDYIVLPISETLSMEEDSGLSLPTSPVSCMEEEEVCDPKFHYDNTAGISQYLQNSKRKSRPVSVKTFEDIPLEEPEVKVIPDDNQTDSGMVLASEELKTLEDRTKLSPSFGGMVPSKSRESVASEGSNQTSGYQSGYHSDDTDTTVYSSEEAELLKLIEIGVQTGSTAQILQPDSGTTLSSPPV
pIC50: −log10 of the molar value.
measuredEndpoint: pIC50

Prompt: What does the record list as pIC50 for C[C@H]1[C@H](C)CC[C@]2(C(=O)O)CC[C@]3(C)C(=CC[C@@H]4[C@@]5(C)C[C@@H](O)[C@H](O)C(C)(C)[C@@H]5CC[C@]43C)[C@H]12 ?
Completion: ~6.02

###

assay: Cytotoxicity assay (MTT); type: cell-based; details: human, Huh7 cells (HCC cell line), Huh7, 24 hours
measuredEndpoint: IC50 at 24 h (µM)
Expressed in µM, but write only the number.

Prompt: What does the record list as IC50 at 24 h for C[C@H]1[C@H](C)CC[C@]2(C(=O)O)CC[C@]3(C)C(=CC[C@@H]4[C@@]5(C)C[C@@H](O)[C@H](O)C(C)(C)[C@@H]5CC[C@]43C)[C@H]12 ?
Completion: 50
